Tested on: superoxide dismutase (SOD)
Assay: Affinity ultrafiltration LC-MS/MS with SOD (relative binding affinity)
Settings: peaks of WUE-A4, SOD 2 U, 37 °C 1 h, n = 3
Marks after values point to notes of the source that are not given here.
Item-by-item account of UF-RBA SOD (relative binding affinity = Aactive/Ainactivated)

Use the examples below as a reference point.
C[C@@H]1O[C@@H](O[C@@H]2[C@@H](O)[C@H](O)[C@@H](CO)O[C@H]2c2cc(-c3cc(=O)c4c(O)cc(O)cc4o3)cc(O)c2O)[C@H](O)[C@H](O)[C@H]1O [compound 1]; 1.9 ± 0.1 ^a,b,c
O=C1OCC2OC(Oc3ccc(cc3)C(=O)OCC3OC(Oc4ccc1cc4)C(O)C(O)C3O)C(O)C(O)C2O (stereo not drawn) [compound 5]; 1.1 ± 0.1 ^e
C[C@@H]1O[C@@H](O[C@@H]2[C@@H](O)[C@H](O)[C@@H](CO)O[C@H]2c2cc(-c3cc(=O)c4c(O)cc(O)cc4o3)ccc2O)[C@H](O)[C@H](O)[C@H]1O [compound 3]; 2.0 ± 0.1 ^a,b

Task item: Give UF-RBA SOD (relative binding affinity = Aactive/Ainactivated) (superoxide dismutase (SOD)) of the following compound: COc1cc(C2c3c(cc(O)c(O)c3OC)C=C(C(=O)NCCc3ccc(O)cc3)C2C(=O)NCCc2ccc(O)cc2)cc(O)c1O (stereo not drawn) [compound 14]
Reply: 1.5 ± 0.1 ^c,d,e

Task item: Follow-up entry: COc1cc(C2c3c(cc(OC)c(O)c3O)C=C(C(=O)NCCc3ccc(O)cc3)C2C(=O)NCCc2ccc(O)cc2)cc(O)c1O (stereo not drawn) [compound 13]
Reply: 1.3 ± 0.1 ^e

Task item: Follow-up entry: O=C(/C=C/c1ccc(O)c(O)c1)NCCc1ccc(O)cc1 [compound 7, N-trans-caffeoyltyramine]
Reply: 1.1 ± 0.3 ^e
